Cited source: PubChem BioAssay (NCATS)

- Test system: CASKI
- Test method notes: Primary qHTS to identify gynecologic anti-cancer compounds using libraries of approved drugs and bioactive compounds (AID 1345084); also: nearly all actives have a fitted effect of over 55% in size
- Condition label: Gynecologic cancer cell panel viability, ATPlite luminescence, 48 h; series mostly up to 57.5 µM
Inconclusive results are not listed. Active and inactive are the calls of the source. Calls follow the shape of the dose curve; as a rule, active = well fitted cell-killing curve with a large enough effect; inconclusive = small, poorly fitted or top-dose-only effect, or effect the other way; inactive = flat fitted curve, though single readings scatter.
In this exercise, the only acceptable responses are t (active), f (inactive)

compound=CC(C)(C)CC(C)(C)c1ccc(O)c(-n2nc3ccccc3n2)c1 tested_on=CASKI class_label=f
compound=CCN(CC)CCNC(=O)COc1ccc(OC)cc1 tested_on=CASKI class_label=f

Could you please tell me the result logged for Cc1ccc(S(=O)(=O)NC(=O)NC2CCCC2)cc1 in this assay?
f

Could you please tell me the result logged for CCCCCCCCCCC[C@@H](C[C@@H]1OC(=O)[C@H]1CCCCCC)OC(=O)[C@H](CC(C)C)NC=O in this assay?
f

Could you please tell me the result logged for O=C(NC1CCN(CCc2c[nH]c3ccccc23)CC1)c1ccccc1 in this assay?
f

Could you please tell me the result logged for CCOCCn1c(N2CCCN(C)CC2)nc2ccccc21 in this assay?
f

Could you please tell me the result logged for NS(=O)(=O)c1cc(C(=O)O)cc(N2CCCC2)c1Oc1ccccc1 in this assay?
f

Could you please tell me the result logged for O=S(=O)(O)c1ccc(O)cc1 in this assay?
f

Could you please tell me the result logged for O=C(O)Cc1csc(-c2ccc(Cl)cc2)n1 in this assay?
f

---

- Tested on: WaGa
- Test method notes: qHTS assay to identify novel small-molecules to repurpose for Merkel cell carcinoma treatment (AID 1296009); also: nearly all actives have a fitted effect of over 60% in size
- Condition label: MCC and control cell lines, CellTiter-Glo viability, 72 h; series mostly up to 46 µM
Results filed as inconclusive are left out. The source made the active and inactive calls. Calls follow the shape of the dose curve; as a rule, active = well fitted inhibition curve with a large enough effect; inconclusive = small, poorly fitted or top-dose-only effect; inactive = flat fitted curve, though single readings scatter.
In this exercise, the only acceptable responses are active, inactive

Worked cases, answers included:
compound=Nc1ccc(S(=O)(=O)NCc2ccccc2)cc1 class_label=inactive
compound=Cc1c(-c2ccccc2)oc2c(C(=O)OCCN3CCCCC3)cccc2c1=O class_label=inactive
compound=COc1ccc2c(c1)c1c3n2CCN(C)C3=NCC1 class_label=inactive

Could you please tell me the result logged for CCNC(=O)/C=C/c1cccc(Br)c1 in this assay?
inactive

Could you please tell me the result logged for CC(=O)Nc1ccc(OCC(O)CNC(C)C)cc1 (configuration not stated) in this assay?
inactive

Could you please tell me the result logged for NC(N)=NN=C(/C=C/c1ccc([N+](=O)[O-])o1)/C=C/c1ccc([N+](=O)[O-])o1 in this assay?
active

Could you please tell me the result logged for CCCCNC(=O)NS(=O)(=O)c1ccc(N)cc1 in this assay?
inactive

Could you please tell me the result logged for COc1ccc(/C=N/NC(=O)c2ccncc2)cc1OC in this assay?
inactive

Could you please tell me the result logged for CC1CCc2c(N3CCC(O)CC3)c(F)cc3c(=O)c(C(=O)O)cn1c23 (configuration not stated) in this assay?
inactive

Could you please tell me the result logged for COc1cc(C(=O)N2CCCCCCC2)cc(OC)c1OC in this assay?
inactive

Could you please tell me the result logged for C#C[C@]1(O)CC[C@H]2[C@@H]3CCC4=CC(=O)CC[C@@H]4[C@H]3CC[C@@]21CC in this assay?
inactive

Could you please tell me the result logged for CCCN(CCC)S(=O)(=O)c1ccc(C(=O)O)cc1 in this assay?
inactive

Could you please tell me the result logged for O=C1c2cccc3c2[C@H](CCC3)CN1[C@@H]1CN2CCC1CC2 in this assay?
inactive

Could you please tell me the result logged for O=[N+]([O-])c1ccc(/C=N\O)o1 in this assay?
active

Could you please tell me the result logged for CCO[C@@H]1O[C@H](C(COCc2ccccc2)OCc2ccccc2)[C@H](OCc2ccccc2)[C@H]1O (some centres not stated) in this assay?
active

Could you please tell me the result logged for COc1ccc(-c2cc(C(F)F)nn2-c2ccc(S(N)(=O)=O)cc2)cc1F in this assay?
inactive

Could you please tell me the result logged for CCN(CC)CCOc1ccc2c(c1)C(=O)c1cc(OCCN(CC)CC)ccc1-2 in this assay?
active
